Test: Drug level in CD1 mouse plasma at 10 mg/kg, ip after 30 mins
Assay type: ADME, organism-based
Design: dose 10 mg/kg, route intraperitoneal
Details: read-out: Drug uptake
OBSERVABLE: concentration at 0.5 h

>>> data_value("COc1cccc(C(=O)NCCN2CCN(c3ncccc3C#N)CC2)c1")
"370 ng/mL"

###

Assay: Drug level in CD1 mouse plasma at 10 mg/kg, ip after 15 mins
Assay type: ADME, organism-based
Design: dose 10 mg/kg, route intraperitoneal
Settings: read-out: Drug uptake
OBSERVABLE: concentration at 0.25 h

>>> data_value("N#Cc1cccnc1N1CCN(CCNC(=O)c2ccc(F)cc2)CC1")
"130 ng/mL"
